- target entity: Cytochrome P450 2D6 (Homo sapiens) (UniProt P10635)
- Sequence (P10635 whole entry, looked up): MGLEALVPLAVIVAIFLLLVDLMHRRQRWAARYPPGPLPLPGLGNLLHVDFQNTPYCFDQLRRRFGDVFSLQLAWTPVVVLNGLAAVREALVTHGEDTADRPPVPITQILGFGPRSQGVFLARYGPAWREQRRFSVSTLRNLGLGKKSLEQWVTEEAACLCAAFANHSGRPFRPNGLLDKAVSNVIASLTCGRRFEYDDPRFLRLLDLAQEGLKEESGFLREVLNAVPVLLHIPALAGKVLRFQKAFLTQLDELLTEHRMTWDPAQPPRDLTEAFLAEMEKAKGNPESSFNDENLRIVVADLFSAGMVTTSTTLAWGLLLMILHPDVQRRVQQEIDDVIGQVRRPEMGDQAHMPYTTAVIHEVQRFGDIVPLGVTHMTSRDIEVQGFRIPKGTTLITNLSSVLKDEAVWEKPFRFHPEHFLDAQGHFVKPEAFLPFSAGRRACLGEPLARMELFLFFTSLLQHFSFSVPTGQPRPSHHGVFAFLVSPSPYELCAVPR
- assay method text: Cytochrome P450 Family 2 Subfamily D Member 6 (CYP2D6) small molecule antagonists: luciferase reporter qHTS assay (AID 1671196); also: nearly all actives have a fitted effect of over 50% in size
- condition summary: P450-Glo CYP2D6 enzyme assay, luciferin luminescence, 1 h; series mostly up to 115 µM
Records with an inconclusive call do not appear. The source made the active and inactive calls. Calls follow the shape of the dose curve; as a rule, active = well fitted inhibition curve with a large enough effect in the repeat runs; inconclusive = weak or mixed curves; inactive = no such curve, though single readings can be large or run the other way.
Respond with a class label; see active, inactive

molecule: C[C@@H]1CCC[C@H](C)N1CCCC(O)(c1ccccc1)c1ccccn1 (stereo partly specified)
class label: active

Prompt: Returns: the outcome recorded for `C[C@]12C=CC(=O)C=C1[C@@H](F)C[C@@H]1[C@@H]2[C@@H](O)C[C@@]2(C)[C@H]1CC[C@]2(O)C(=O)CO` in this assay.
Completion: inactive

Prompt: Another molecule to check: `CC1(C)C(=O)C(C)(C)C1=O`
Completion: inactive

Prompt: Another molecule to check: `Cc1nnc(C(=O)NC(C)(C)c2nc(C(=O)NCc3ccc(F)cc3)c(O)c(=O)n2C)o1`
Completion: inactive

Prompt: Another molecule to check: `Cc1cc(C)c(C)c(C)c1`
Completion: inactive

Prompt: Another molecule to check: CCCCCCC(O)CO (stereo unspecified)
Completion: inactive
